Ref: patent US12642270B2

# assayProtocol: Log P by HPLC on reversed phase columns (EEC directive 79/831 Annex V.A8)
# Format: physicochemical
# measurementSetup: method [a]
Reported LogP is given for each of the following compounds.

>  <compound>
N#CCNC(=O)c1sc(Cl)c(Br)c1Br

>  <LogP>
2.72^[a]

$$$$

Look up LogP: "COC(=O)CNC(=O)c1sc(Cl)c(Br)c1Cl"
2.85^[a]

* * *

# assayProtocol: Log P by HPLC on reversed phase columns (EEC directive 79/831 Annex V.A8)
# Type: physicochemical
# measurementSetup: LogP method [a]; compounds of formula (I), Table 1.1
# LogP per entry

# example entries with known answers
>  <compound>
COC(=O)CC[C@H](NC(=O)c1sc(Br)c(Br)c1Cl)C(=O)OC

>  <measurement>
3.40^[a]

$$$$
>  <compound>
O=C(O)CNC(=O)c1sc(Br)c(Br)c1Cl

>  <measurement>
2.28^[a]

$$$$
>  <compound>
CCOC(=O)CNC(=O)c1sc(C(F)F)c(Br)c1Br

>  <measurement>
3.02^[a]

$$$$

Which measured LogP value corresponds to COC(=O)C(NC(=O)c1sc(Br)c(C(F)F)c1Br)C1CC1 (centres unmarked) ?
3.37^[a]

Dear colleague, I am looking for the recorded LogP of the following compound: CCOC(=O)C(Cc1ccccc1)NC(=O)c1sc(Br)c(C#N)c1Br (centres unmarked)
4.08^[a]

* * *

# assayProtocol: Log P by HPLC on reversed phase columns (EEC directive 79/831 Annex V.A8)
# Format: physicochemical
# measurementSetup: method [a]
As shown below, each of these compounds has a reported LogP value.

Illustrative cases are given below, each with its answer.
>  <compound>
CCOC(=O)C(CSC(C)=O)NC(=O)c1sc(Br)c(Br)c1Cl (stereo not drawn)

>  <LogP>
3.44^[a]

$$$$
>  <compound>
CCOC(=O)C[C@H](NC(=O)c1sc(Br)c(Br)c1F)C(=O)OCC

>  <LogP>
3.76^[a]

$$$$
>  <compound>
CCNC(=O)SC[C@H](NC(=O)c1sc(Br)c(Br)c1F)C(=O)OC

>  <LogP>
3.10^[a]

$$$$

Which LogP reading was recorded for the compound "COC(=O)CNC(=S)c1cc(Br)c(Cl)s1" ?
3.35^[a]

Any idea what LogP was measured for CCOC(=O)C(CO)NC(=O)c1sc(C#N)c(Cl)c1Cl (stereo not drawn) ?
2.33^[a]

Endpoint output: LogP of "COC(=O)CNC(=O)c1sc(C)c(Cl)c1Cl" . Value?
2.45^[a]

I'd like to know its LogP. The compound in question is CCOC(=O)C(Cc1ccccc1)NC(=O)c1sc(Cl)c(Br)c1Br (stereo not drawn)
5.04^[a]

For "COC(=O)C1(NC(=O)c2sc(Cl)c(Br)c2C#N)CCC1" , what is its reported LogP?
2.82^[a]

So what does the record say about LogP for COC(=O)C(NC(=O)c1sc(Cl)c(Br)c1F)C1CC1 (stereo not drawn) ?
3.41^[a]

Dear colleague, I am looking for the recorded LogP of the following compound: "Cc1c(C(=O)NC2(C(=O)O)CC2)sc(C#N)c1Br"
1.84^[a]

Which LogP is reported for this compound? COC(=O)C(NC(=O)c1cc(Cl)c(Br)s1)C1CC1 (stereo not drawn)
3.01^[a]

Using the record for "COC(=O)C(C)(C)NC(=O)c1sc(Br)c(C(F)F)c1Br" , report its LogP.
3.22^[a]

// query LogP value for entry "N#CCNC(=O)c1sc(Br)c(C#N)c1Cl"
2.03^[a]

What does the data say about its LogP? Entry: "COC(=O)C1(NC(=O)c2sc(Cl)c(C#N)c2Br)CC1"
2.34^[a]

Request the reported LogP associated with "O=C(NC1(C(=O)OCc2ccccc2)CCC1)c1sc(Br)c(Br)c1F"
4.59^[a]

Can you look up the measured LogP of "CCOC(=O)CNC(=O)c1sc(Br)c(Br)c1C#N" for me?
2.59^[a]

Entry "COC(=O)[C@@H](CC(N)=O)NC(=O)c1sc(Br)c(Br)c1F" : reported LogP = ?
1.98^[a]

Can you share its LogP? I mean this compound: "Cc1c(C(=O)NCC(N)=O)sc(C#N)c1Br"
1.38^[a]

# input compound: "CCOC(=O)[C@H](CO)NC(=O)c1sc(Br)c(Br)c1C" ; wanted: its LogP
2.64^[a]

Could you share which LogP value was measured for "COC(=O)C1(NC(=O)c2sc(Br)c(Br)c2C#N)CC1" ?
2.40^[a]

Requested field: LogP. Item: "COC(=O)C(NC(=O)c1sc(Cl)c(Br)c1C)(C1CC1)C1CC1"
3.98^[a]

* * *

In this section we review reported LogP values for a set of compounds.
# assayProtocol: Log P by HPLC on reversed phase columns (EEC directive 79/831 Annex V.A8)
# Type: physicochemical
# measurementSetup: method marker [a] given with each value; Table 1.1, compounds of formula (I)

Example results:
>  <compound>
CCOC(=O)C1(NC(=O)c2sc(Br)c(Br)c2C(F)F)CSC1

>  <LogP>
3.58^[a]

$$$$
>  <compound>
CCOC(=O)C(NC(=O)c1sc(Br)c(Br)c1Cl)C(F)(F)F (racemic)

>  <LogP>
4.50^[a]

$$$$
>  <compound>
Cc1c(C(=O)NCC(=O)OCC2CC2)sc(C#N)c1Br

>  <LogP>
2.86^[a]

$$$$
>  <compound>
COC(=O)C(C)(Cc1ccccc1)NC(=O)c1sc(Br)c(Br)c1F (stereo not drawn)

>  <LogP>
4.64^[a]

$$$$
>  <compound>
COC(=O)[C@H](CC(N)=O)NC(=O)c1sc(Cl)c(Cl)c1Br

>  <LogP>
2.23^[a]

$$$$

Field: next compound
LogP lookup needed for COC(=O)C(CCSC(C)=O)NC(=O)c1sc(Cl)c(Cl)c1Br (stereo not drawn) , thanks.
3.98^[a]

* * *

# assayProtocol: Log P by HPLC on reversed phase columns (EEC directive 79/831 Annex V.A8)
# Assay type: physicochemical
# measurementSetup: method marker [a] given with each value; Table 1.1, compounds of formula (I)
Listed here are compounds together with their documented LogP.

The cases that follow already have their LogP on record.
>  <compound>
COC(=O)C(C)(C)NC(=O)c1sc(Cl)c(Br)c1Cl

>  <LogP>
3.73^[a]

$$$$
>  <compound>
O=C(CNC(=O)c1sc(Br)c(Br)c1F)OCC(F)(F)F

>  <LogP>
3.40^[a]

$$$$
>  <compound>
COC(=O)C1(NC(=O)c2sc(Cl)c(Br)c2Cl)CCC1

>  <LogP>
3.74^[a]

$$$$
>  <compound>
CCCOC(=O)CNC(=O)c1sc(C#N)c(Br)c1C

>  <LogP>
2.81^[a]

$$$$
>  <compound>
CCOC(=O)CN(C(=O)c1sc(Cl)c(Br)c1Cl)C1CC1

>  <LogP>
3.80^[a]

$$$$

Which LogP value belongs to "O=C(CNC(=O)c1sc(Br)c(Br)c1Cl)SCc1ccccc1" ?
4.62^[a]

Would you mind telling me what LogP value was observed for "COC(=O)[C@H](CC(=O)O)NC(=O)c1sc(Br)c(Br)c1F" ?
2.28^[a]

Entry under review: "CCCOC(=O)C1(NC(=O)c2sc(C#N)c(Br)c2C)CC1" . Reported LogP?
2.98^[a]

Requested field: LogP. Item: "COC(=O)C1(NC(=O)c2sc(Cl)c(C)c2Cl)CC1"
2.86^[a]

Which LogP value belongs to "O=C(CNC(=O)c1sc(Br)c(Br)c1Cl)Oc1ccccc1" ?
3.93^[a]

Any idea what LogP was measured for CCOC(=O)C(NC(=O)c1sc(Cl)c(Cl)c1Br)C(F)(F)F (racemic) ?
4.52^[a]

What measured LogP goes with "N#CCNC(=O)c1sc(C#N)c(Br)c1Br" ?
2.12^[a]

Please look up its LogP: "O=C(CNC(=O)c1sc(Br)c(Br)c1F)OC1CCOCC1"
2.80^[a]

Could you tell me which LogP is on file for "Cc1c(C(=O)NCC(=O)OCc2ccccc2)sc(C#N)c1Br" ?
3.26^[a]

Requested field: LogP. Item: "CCCCOC(=O)C1(NC(=O)c2sc(C#N)c(Br)c2C)CC1"
3.36^[a]

Field request: LogP | item: "N#CCCOC(=O)CNC(=O)c1sc(Br)c(Br)c1Cl"
2.76^[a]

Which LogP value belongs to "COC(=O)C(C)(C)NC(=O)c1sc(Cl)c(Cl)c1Br" ?
3.71^[a]

# input compound: "Cc1c(C(=O)NC2(C(=O)OCC(C)C)CC2)sc(C#N)c1Br" ; wanted: its LogP
3.33^[a]

Reported LogP for "Cc1c(C(=O)NC2(C(=O)OC3CCCC3)CC2)sc(C#N)c1Br" : what is it?
3.36^[a]

So what's the measured LogP for this one? COC(=O)C(Cc1ccc(Cl)cc1)NC(=O)c1sc(Br)c(Br)c1F (stereo not drawn)
4.52^[a]

Return reported LogP; argument: "Cc1c(C(=O)NCC(=O)OCCC#N)sc(C#N)c1Br"
2.09^[a]
